experiment: Half life in dog; format: ADME, organism-based, Canis lupus familiaris; details: in vivo
measured endpoint: half-life
Field note: include the unit after the figure.

Looking up `Cc1cc(C(N)=O)nn1-c1cccc(-c2ccc(C(F)(F)F)cc2C(F)(F)F)c1` , I found its half-life recorded as 1.4 h

----------
Below, each of the compounds is paired with its reported CL/F value.
experiment: Clearance in rat plasma at 1 mg/kg, ip; type: ADME, organism-based; set-up: dose 1 mg/kg, route intraperitoneal
Please respond with the number in mL/min/kg and leave the unit unwritten.

>>> reported_value("NC(=O)n1ccc(-c2ccc(-c3ccccc3Cl)cc2)n1")
125

For the next question, use this compound.
Looking up `NC(=O)n1ccc(-c2cccc(-c3ccccc3Cl)c2)n1` , I found its CL/F recorded as 123
